The measurements presented in this section are drawn from PubChem BioAssay (NCI).

Test system: UACC-62 melanoma
Assay: NCI tumour cell line growth inhibition, 48 h; in the data active = GI50 below about 0.43 µM; inactive = the rest
Answer with one of the outcomes given here: YES for active, NO for inactive

CCOC(=O)Oc1c(OC)cc(C(=O)NC2CCc3cc(OC)c(OC)c(OC)c3-c3ccc(SC)c(=O)cc32)cc1OC (stereo unspecified) = YES
CNCCNc1c2c(c(NCCNC)c3c(CN(C)C)c[nH]c13)C(=O)c1ccccc1C2=O = NO
CCC[CH2][Ge]([CH2]CCC)([CH2]CCC)[O]C(=O)CC(=O)c1ccccc1 = NO
COc1ccc2c(c1)C(C)Cc1c(Cl)ncnc1N2C (stereo unspecified) = NO
Cc1ccc(Cl)cc1Nc1nc(C(F)(F)F)ccc1C(=O)N1CCN(c2ccc(F)cc2)CC1 = NO

Tell me the recorded outcome of this test for COc1ccc(C(=O)c2cc(OC)c(C)c(OC)c2)cc1OC(=O)CCl . NO

Tell me the recorded outcome of this test for CC(SC(C)C(=O)N/N=C/c1cccc(Cl)c1)C(=O)N/N=C\c1cccc(Cl)c1 (stereo unspecified) . NO

Tell me the recorded outcome of this test for C[C@H]1c2cccc(O)c2C(O)=C2C(=O)[C@]3(O)C(O)=C(C(N)=O)C(=O)[C@@H](N(C)C)[C@@H]3[C@@H](O)[C@@H]21 . NO

Tell me the recorded outcome of this test for COCCOc1cc(F)c2c(Nc3ccc(NC(=O)Cn4cc(C(C)C)nn4)cc3)ncnc2c1 . NO

Tell me the recorded outcome of this test for O=c1n(CC2CO2)c(=O)n(CC2CO2)c(=O)n1CC1CO1 (stereo unspecified) . NO

Tell me the recorded outcome of this test for COc1cc(C(=O)c2cc(C)c3[nH]c4ccc(Cl)cc4c3c2C)cc(OC)c1OC . YES
